molecular target: JH esterase; assay: JH esterase inhibition in T. ni hemolymph; type: biochemical, Trichoplusia ni; conditions: diluted T. ni larval plasma, 10 min preincubation at 30° C., 5×10^-6 M JH III; read-out: I50 (M) JHE

[
  {
    "compound": "CCCCCCCCCCSCC(=O)C(F)(F)F [Compound 3]",
    "assay.system": "JH esterase",
    "units": "M",
    "IC50": "2e-08"
  },
  {
    "compound": "CC(C)c1ccccc1SCC(=O)C(F)(F)F [Compound 12]",
    "assay.system": "JH esterase",
    "units": "M",
    "IC50": "3.4e-07"
  },
  {
    "compound": "Cc1ccc(SCC(=O)C(F)(F)F)cc1 [Compound 11]",
    "assay.system": "JH esterase",
    "units": "M",
    "IC50": "1.1e-07"
  },
  {
    "compound": "CC(C)=CCC/C(C)=C/CCSCC(=O)C(F)(F)F [Compound 31]",
    "assay.system": "JH esterase",
    "units": "M",
    "IC50": "3.2e-09"
  },
  {
    "compound": "O=C(CSC1CCCCC1)C(F)(F)F [Compound 6]",
    "assay.system": "JH esterase",
    "units": "M",
    "IC50": "5.2e-06"
  },
  {
    "compound": "CCCCCCCCCSCC(=O)C(F)(F)F [Compound 2]",
    "assay.system": "JH esterase",
    "units": "M",
    "IC50": "3.7e-09"
  },
  {
    "compound": "CCCCCCCCCCCCSCC(=O)C(F)(F)F [Compound 5]",
    "assay.system": "JH esterase",
    "units": "M",
    "IC50": "1.5e-08"
  },
  {
    "compound": "Cc1ccccc1SCC(=O)C(F)(F)F [Compound 9]",
    "assay.system": "JH esterase",
    "units": "M",
    "IC50": "4.3e-06"
  },
  {
    "compound": "COC(C)(C)CCC/C(C)=C/CCSCC(=O)C(F)(F)F [Compound 32]",
    "assay.system": "JH esterase",
    "units": "M",
    "IC50": "3.1e-09"
  },
  {
    "compound": "O=C(CSc1ccc(Br)cc1)C(F)(F)F [Compound 20]",
    "assay.system": "JH esterase",
    "units": "M",
    "IC50": "4.1e-07"
  },
  {
    "compound": "CCCCCCCCCCCSCC(=O)C(F)(F)F [Compound 4]",
    "assay.system": "JH esterase",
    "units": "M",
    "IC50": "4.3e-08"
  }
]

###

target: bovine pancreatic type III trypsin (Bos taurus, UniProt P00760); construct: purchased Sigma type III; experiment: trypsin activity; format: biochemical; conditions: p-toluenesulfonyl-L-arginine methyl ester 1×10^-4 M, 25° C.; read-out: I50 (M) Trypsin (*greater than)
Sequence (P00760 24-246): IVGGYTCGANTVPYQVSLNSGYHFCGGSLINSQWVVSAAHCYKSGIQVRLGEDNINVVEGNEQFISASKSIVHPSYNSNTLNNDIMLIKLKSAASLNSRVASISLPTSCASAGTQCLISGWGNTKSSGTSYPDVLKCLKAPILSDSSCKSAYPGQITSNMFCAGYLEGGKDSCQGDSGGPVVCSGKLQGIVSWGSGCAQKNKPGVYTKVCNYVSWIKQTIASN

[
  {
    "smiles.repr": "CC(C)c1ccccc1SCC(=O)C(F)(F)F",
    "assay.system": "bovine pancreatic type III trypsin (Bos taurus, UniProt P00760)",
    "IC50": "4.7e-05 M"
  },
  {
    "smiles.repr": "Cc1ccc(SCC(=O)C(F)(F)F)cc1",
    "assay.system": "bovine pancreatic type III trypsin (Bos taurus, UniProt P00760)",
    "IC50": "> 0.0001 M"
  },
  {
    "smiles.repr": "CCCCCCCCSCC(=O)C(F)(F)F",
    "assay.system": "bovine pancreatic type III trypsin (Bos taurus, UniProt P00760)",
    "IC50": "> 1e-05 M"
  },
  {
    "smiles.repr": "CCCCCCCCCCSCC(=O)C(F)(F)F",
    "assay.system": "bovine pancreatic type III trypsin (Bos taurus, UniProt P00760)",
    "IC50": "8.2e-05 M"
  },
  {
    "smiles.repr": "CCCCCCCCCCCCSCC(=O)C(F)(F)F",
    "assay.system": "bovine pancreatic type III trypsin (Bos taurus, UniProt P00760)",
    "IC50": "> 0.0001 M"
  },
  {
    "smiles.repr": "Cc1ccccc1SCC(=O)C(F)(F)F",
    "assay.system": "bovine pancreatic type III trypsin (Bos taurus, UniProt P00760)",
    "IC50": "8.5e-05 M"
  },
  {
    "smiles.repr": "CCCCCCCCCSCC(=O)C(F)(F)F",
    "assay.system": "bovine pancreatic type III trypsin (Bos taurus, UniProt P00760)",
    "IC50": "> 0.0001 M"
  },
  {
    "smiles.repr": "CCCCCCCCCCCSCC(=O)C(F)(F)F",
    "assay.system": "bovine pancreatic type III trypsin (Bos taurus, UniProt P00760)",
    "IC50": "> 0.0001 M"
  },
  {
    "smiles.repr": "CC(C)=CCC/C(C)=C/CCSCC(=O)C(F)(F)F",
    "assay.system": "bovine pancreatic type III trypsin (Bos taurus, UniProt P00760)",
    "IC50": "> 0.0001 M"
  },
  {
    "smiles.repr": "O=C(CSc1ccc(Br)cc1)C(F)(F)F",
    "assay.system": "bovine pancreatic type III trypsin (Bos taurus, UniProt P00760)",
    "IC50": "> 1e-05 M"
  },
  {
    "smiles.repr": "O=C(CSC1CCCCC1)C(F)(F)F",
    "assay.system": "bovine pancreatic type III trypsin (Bos taurus, UniProt P00760)",
    "IC50": "> 0.0001 M"
  }
]
